Tested on: DeltatarO mutant
assay.overview: S. aureus survival, RN4220 and DeltatarO strains – OD600, teichoic acid synthesis inhibitors, primary screen (AID 463173)
experimental.parameters: S. aureus RN4220 wild type/DeltatarO growth, OD600, 18 h, active compounds read low, screened at 18.75 µg/mL (by protocol)
About 4,300 (8.3%) of roughly 52,000 compounds were called active. Shown is part of a subset that was picked to be rich in actives.
Measured survival accompanies every entry in the list below.
readout.name: survival (%)

compound="CCOc1ccc(NC(=O)CC2C(=O)N(c3ccccc3)C(=O)N2Cc2cccc(OC)c2)cc1 (stereo unspecified)" observed_result=102
compound=Cc1ccc(Nc2c(-c3ccncc3)nc3ccc(C)cn23)cc1 observed_result=102
compound="CCc1ccc(NC(=O)CC2C(=O)N(c3ccccc3)C(=O)N2C(C)C)cc1 (stereo unspecified)" observed_result=-5
compound=Cn1c(=O)n(C)c2cc(S(=O)(=O)Nc3ccccc3C(=O)O)ccc21 observed_result=105
compound="COC(=O)C(NC(=O)CC(C)C)(Nc1nc2c(s1)CCCC2)C(F)(F)F (stereo unspecified)" observed_result=120
compound=CC(C)c1ccc(Nc2c(-c3ccc(N(C)C)cc3)nc3cnccn23)cc1 observed_result=43
compound=COc1ccc(-c2csc3nc(-c4ccc(F)cc4)oc(=O)c23)cc1 observed_result=61
compound="COc1cc2c(cc1OC)C(COc1ccc3c(C)cc(=O)oc3c1)N(C(=O)c1ccc(C)c(C)c1)CC2 (stereo unspecified)" observed_result=74
compound=Oc1ccccc1-c1nc2cnccn2c1Nc1ccc(Cl)cc1 observed_result=15
compound="CCCOc1ccc(NC(=O)CC2C(=O)N(c3ccc(C)cc3)C(=O)N2C(C)C)cc1 (stereo unspecified)" observed_result=128
compound="Cc1ccc(N2C(=O)C(CC(=O)Nc3ccc(F)cc3)N(CCC3=CCCCC3)C2=O)cc1 (stereo unspecified)" observed_result=55
compound=CC(C)c1ccc(Nc2c(-c3ccccc3O)nc3cnccn23)cc1 observed_result=55
compound=COc1ccc(Nc2c(-c3ccc(Cl)cc3)nc3cnccn23)cc1OC observed_result=58
compound=Cc1cc(C)c(NC(=O)CCN2C(=O)c3ccccc3Sc3ncccc32)c(C)c1 observed_result=106
compound="CC1CCN(C(C(=O)O)c2ccccc2)CC1 (stereo unspecified)" observed_result=98
compound=CN(C)c1ccc(-c2nc3cnccn3c2Nc2cccc(C(F)(F)F)c2)cc1 observed_result=83
compound=Cc1ccc(Nc2c(-c3ccc(C)cc3)nc3cnccn23)cc1 observed_result=35
compound=Cc1cccc(C)c1Nc1c(-c2ccccc2Cl)nc2cnccn12 observed_result=97
compound="CCCOc1ccc(NC(=O)CC2C(=O)N(c3ccc(C)cc3)C(=O)N2Cc2cccc(OC)c2)cc1 (stereo unspecified)" observed_result=46
compound="COc1cccc(CN2C(=O)N(c3ccc(C)cc3)C(=O)C2CC(=O)Nc2cc(OC)cc(OC)c2)c1 (stereo unspecified)" observed_result=144
compound="Cc1ccc(N2C(=O)C(CC(=O)Nc3ccccc3)N(CCC3=CCCCC3)C2=O)cc1 (stereo unspecified)" observed_result=67

###

Test system: DeltatarO mutant
assay.overview: S. aureus survival, RN4220 and DeltatarO strains – OD600, teichoic acid synthesis inhibitors, primary screen (AID 463173)
experimental.parameters: S. aureus RN4220 wild type/DeltatarO growth, OD600, 18 h, screened at 18.75 µg/mL (by protocol)
Among all 52,000 compounds or so, about 4,300 (8.3%) were called active. Rule as the data show it: active = survival mostly below about 52% (no sharp cut-off); inactive = mostly above about 56%. The full list was thinned out, with actives kept by preference.
Possible outcomes: active, inactive

compound=COc1cc(OC)c(OC)cc1CN1CCc2nc(N3CCN(c4ccccc4F)CC3)ncc2C1 class_label=inactive
compound=CCc1cc2c(cc3c(=O)n(CCCC(=O)NCc4cccc(Cl)c4)ncn32)s1 class_label=inactive
compound=COc1ccccc1N1CCN(C(=O)CSc2nc3ccccc3nc2Cc2ccccc2)CC1 class_label=inactive
compound=Cc1ccc2c(CC(=O)N(Cc3ccc(Cl)cc3)Cc3ccco3)coc2c1 class_label=inactive
compound=CCN1CCN(c2ncc3c(n2)CCN(Cc2ccccc2C)C3)CC1 class_label=active
compound="CN(C1CCCCC1)C(c1ccc(F)cc1)c1nnnn1C1CCCCC1 (stereo unspecified)" class_label=inactive
compound=Cc1ccc(C(=O)Nc2ccc3oc(-c4cccnc4)nc3c2)c(Cl)c1 class_label=inactive
compound=Cc1cc(C)c2c(CC(=O)N(Cc3ccc(Cl)cc3)Cc3ccco3)coc2c1 class_label=inactive
compound=Cc1ccccc1CN1CCc2nc(N3CCN(c4ncccn4)CC3)ncc2C1 class_label=inactive
compound=Cc1ccccc1CN1CCc2nc(N3CCN(c4ccccn4)CC3)ncc2C1 class_label=inactive
compound=Cc1ccc(NC(=O)Cn2c(=O)n(Cc3ccco3)c(=O)c3ccccc32)cc1 class_label=inactive
compound=COC(=O)c1ccccc1NC(=O)c1oc2ccc3c(c2c1C)C(=O)CC(C)(C)O3 class_label=inactive
compound=Cc1cccc(C(=O)N2CCc3cc(CNC(=O)CSc4ccccc4)ccc32)c1 class_label=inactive
compound=CCN1CCN(c2ncc3c(n2)CCN(Cc2ccc(Br)s2)C3)CC1 class_label=inactive
compound=Cc1ccc2c(CC(=O)N(Cc3ccc(N(C)C)cc3)Cc3ccco3)coc2c1C class_label=active
compound=COc1ccc(-c2nc(CSc3nncn4c3cc3oc(C)cc34)c(C)o2)cc1 class_label=inactive
compound=Cc1ccc2cc(CN(CCN(C)C)C(=O)NC3CCCCC3)c(=O)[nH]c2c1 class_label=inactive
compound=Cc1ccc(C(=O)OCc2cc(=O)n3nc(-c4cccs4)sc3n2)cc1 class_label=inactive
compound=COc1cc(Cl)c(C)cc1NC(=O)c1cn(C2CCCC2)c(=O)c2c1c1ccccc1n2C class_label=inactive
compound=O=C(CSc1nc2c([nH]c3ccccc32)c(=O)n1-c1cccc(C(F)(F)F)c1)N1CCCC1 class_label=inactive
compound="COc1ccccc1NC(=O)CC(C)n1nc(C)cc1C (stereo unspecified)" class_label=inactive
